target: human DIPP1 (DIPP1 1-148) (Homo sapiens, UniProt O95989, R45A); assay: isothermal titration calorimetry
READOUT LABEL: Kd
Answer by giving the amount and then stating its unit.

Per the record, O=P(O)(O)O[C@@H]1[C@@H](OP(=O)(O)O)[C@H](OP(=O)(O)OP(=O)(O)O)[C@@H](OP(=O)(O)O)[C@H](OP(=O)(O)OP(=O)(O)O)[C@@H]1OP(=O)(O)O has Kd of 0.36 µM

###

biological target: human DIPP1 (DIPP1 1-148) (Homo sapiens, UniProt O95989, R41A); test: isothermal titration calorimetry
Sequence (O95989 1-148 R41A): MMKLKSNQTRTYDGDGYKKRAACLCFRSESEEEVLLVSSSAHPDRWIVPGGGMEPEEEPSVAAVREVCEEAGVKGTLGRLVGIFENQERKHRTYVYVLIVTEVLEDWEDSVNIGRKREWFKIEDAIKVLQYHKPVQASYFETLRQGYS
READOUT LABEL: Kd (nM)
Hi! Could you send only the number? It should be in nM, unit omitted.

Per the record, O=P(O)(O)O[C@@H]1[C@@H](OP(=O)(O)O)[C@H](OP(=O)(O)OP(=O)(O)O)[C@@H](OP(=O)(O)O)[C@H](OP(=O)(O)OP(=O)(O)O)[C@@H]1OP(=O)(O)O has Kd of 460

###

target: human DIPP1 (DIPP1 1-148) (Homo sapiens, UniProt O95989, H42A/R45A); experiment: isothermal titration calorimetry; assay type: binding
Sequence (O95989 1-148 H42A/R45A): as the sequence (O95989 1-148 R41A) above, with A41R, H42A, R45A counted along it
READOUT LABEL: Kd

Per the record, O=P(O)(O)O[C@@H]1[C@@H](OP(=O)(O)O)[C@H](OP(=O)(O)OP(=O)(O)O)[C@@H](OP(=O)(O)O)[C@H](OP(=O)(O)OP(=O)(O)O)[C@@H]1OP(=O)(O)O [1,5-InsP8] has Kd of 1060 nM

###

target: human DIPP1 (DIPP1 1-148) (Homo sapiens, UniProt O95989, H42A); experiment: isothermal titration calorimetry
Sequence (O95989 1-148 H42A): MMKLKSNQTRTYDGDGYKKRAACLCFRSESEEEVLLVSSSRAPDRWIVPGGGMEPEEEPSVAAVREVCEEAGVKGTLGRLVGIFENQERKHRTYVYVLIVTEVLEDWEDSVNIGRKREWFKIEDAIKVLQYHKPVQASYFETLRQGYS
READOUT LABEL: Kd
Answer by giving the amount and then stating its unit.

Per the record, O=P(O)(O)O[C@@H]1[C@@H](OP(=O)(O)O)[C@H](OP(=O)(O)OP(=O)(O)O)[C@@H](OP(=O)(O)O)[C@H](OP(=O)(O)OP(=O)(O)O)[C@@H]1OP(=O)(O)O [1,5-InsP8] has Kd of 510 nM
